Origin of values: patent US20230312601A1

# System: OCI-LY3 IL6
# Method Summary: MALT-1 Cell IL-6 AlphaLISA Assay
# Assay type: cell-based
# Condition Parameters: Homo sapiens; OCI-LY3 cells, 48 hours incubation; read-out: OCI-LY3 IL6 48 hour Inhibition EC50
pEC50: −log10 of the molar value.
pEC50 for assorted molecules

[
  {
    "Molecule": "CO[C@@H](C)c1c(Nc2ccc([C@H](N(C)C(=O)C3CCN(C(=O)CO)CC3)C(F)(F)F)cc2)cnc2sc(C)nc12",
    "pEC50": 6.74
  },
  {
    "Molecule": "CO[C@@H](C)c1c(Nc2ccc([C@H](N(C)C(=O)C3CCN(C(=O)CCO)CC3)C(F)(F)F)cc2)cnc2sc(C)nc12",
    "pEC50": 6.42
  },
  {
    "Molecule": "CO[C@H](c1c(Nc2ccc([C@@H](C(F)F)N(C)C(=O)C3CCS(=O)(=O)CC3)cc2)cnc2sc(C)nc12)C(F)(F)F",
    "pEC50": 6.70
  },
  {
    "Molecule": "CO[C@@H](C)c1c(Nc2ccc([C@H](N(C)C(=O)C3CCS(=O)(=O)CC3)C(F)(F)F)cc2)cnc2sc(C)nc12",
    "pEC50": 6.70
  },
  {
    "Molecule": "CO[C@@H](C)c1c(Nc2ccc([C@H](N(C)C(=O)C3CCN(C(=O)C(O)CO)CC3)C(F)(F)F)cc2)cnc2sc(C)nc12 (stereo partly drawn)",
    "pEC50": 4.91
  },
  {
    "Molecule": "CO[C@@H](C)c1c(Nc2ccc([C@@H](C(F)F)N(C)C(=O)C3CCN(C(=O)CO)CC3)cc2)cnc2sc(C)nc12",
    "pEC50": 6.38
  },
  {
    "Molecule": "CO[C@H](c1c(Nc2ccc([C@H](N(C)C(=O)C3CCN(C(C)=O)CC3)C(F)(F)F)cc2)cnc2sc(C)nc12)C(F)F",
    "pEC50": 5.94
  },
  {
    "Molecule": "CO[C@@H](C)c1c(Nc2ccc([C@@H](C(F)F)N(C)C(=O)C3CCS(=O)(=O)CC3)cc2)cnc2sc(C)nc12",
    "pEC50": 5.88
  },
  {
    "Molecule": "CO[C@H](c1c(Nc2ccc([C@@H](C(F)F)N(C)C(=O)C3CCN(C(C)=O)CC3)cc2)cnc2sc(C)nc12)C(F)(F)F",
    "pEC50": 6.68
  },
  {
    "Molecule": "CO[C@H](c1c(Nc2ccc([C@H](N(C)C(=O)C3CCN(C(=O)CO)CC3)C(F)(F)F)cc2)cnc2sc(C)nc12)C(F)F",
    "pEC50": 6.17
  },
  {
    "Molecule": "CO[C@@H](C)c1c(Nc2ccc([C@H](N(C)C(=O)C3CCN(C(C)=O)CC3)C(F)(F)F)cc2)cnc2sc(C)nc12",
    "pEC50": 6.02
  },
  {
    "Molecule": "CO[C@@H](c1c(Nc2ccc([C@H](N(C)C(=O)C3CCN(C(C)=O)CC3)C(F)(F)F)cc2)cnc2sc(C)nc12)C(F)F",
    "pEC50": 6.74
  },
  {
    "Molecule": "CO[C@H](C)c1c(Nc2ccc([C@H](N(C)C(=O)C3CCN(C(C)=O)CC3)C(F)(F)F)cc2)cnc2sc(C)nc12",
    "pEC50": 5.14
  },
  {
    "Molecule": "CO[C@H](C)c1c(Nc2ccc([C@@H](C(F)F)N(C)C(=O)C3CCS(=O)(=O)CC3)cc2)cnc2sc(C)nc12",
    "pEC50": 6.70
  },
  {
    "Molecule": "CO[C@@H](C)c1c(Nc2ccc([C@H](N(C)C(=O)C3CCN(C(=O)[C@H](C)O)CC3)C(F)(F)F)cc2)cnc2sc(C)nc12",
    "pEC50": 5.94
  }
]
